# System: Porcine Atria myofibrils
# METHOD: Myofibril ATPase assay (PK/LDH NADH-coupled), atria myofibrils
# Type: biochemical
# TEST CONDITIONS: Table 8
Respond with yes for Porcine Atria IC25 values of 400 nM and above, no for values below.

Prompt line: Please check the record Cc1nc(C#N)cnc1[C@@H](C)NC(=O)CN1C(=O)Nc2ccc(F)c(F)c2C12CC2 and state if its Porcine Atria IC25 is at or above 400 nM.
Response line: yes

Prompt line: Cool, now C[C@@H](NC(=O)CN1C(=O)Nc2ccc(F)cc2C12CC2)c1ccc(C#N)nn1
Response line: yes

Prompt line: Cool, now COc1cc(C#N)ncc1[C@@H](C)NC(=O)CN1Cc2c(ccc(F)c2F)NC1=O
Response line: no

Prompt line: Cool, now Cc1nc(C#N)ncc1[C@@H](C)NC(=O)CN1Cc2c(ccc(F)c2F)NC1=O
Response line: no

Prompt line: Cool, now CC(C)c1cc(F)cnc1[C@@H](C)NC(=O)CN1Cc2c(ccc(F)c2F)NC1=O
Response line: yes

Prompt line: Cool, now C[C@H](C(=O)N[C@@H](CO)c1ccc(F)cc1F)N1Cc2c(Cl)cccc2NC1=O
Response line: no

Prompt line: Cool, now C[C@H](NC(=O)CN1Cc2c(ccc(F)c2F)NC1=O)c1ccc(Cl)cn1
Response line: no

Prompt line: Cool, now O=C(CN1Cc2cc(F)ccc2NC1=O)N[C@H](CO)c1ccc(F)cc1F
Response line: no

Prompt line: Cool, now O=C(CN1Cc2c(ccc(F)c2F)NC1=O)N[C@H]1COCc2cc(F)cc(F)c21
Response line: yes

Prompt line: Cool, now Cc1ccnnc1[C@@H](C)NC(=O)CN1Cc2c(ccc(F)c2F)NC1=O
Response line: yes

Prompt line: Cool, now C[C@H](NC(=O)CN1Cc2c(ccc(C#N)c2F)NC1=O)c1ccc(F)cc1F
Response line: no

Prompt line: Cool, now CC(C)c1cc(F)cnc1[C@H](C)NC(=O)CN1Cc2c(ccc(F)c2F)NC1=O
Response line: yes

Prompt line: Cool, now C[C@@H](NC(=O)CN1Cc2cc(F)c(F)cc2NC1=O)c1ccc(C#N)cc1F
Response line: yes

Prompt line: Cool, now Cc1noc([C@H](C)NC(=O)CN2Cc3c(ccc(F)c3F)NC2=O)n1
Response line: yes

Prompt line: Cool, now C[C@H](NC(=O)CN1Cc2cc(F)ccc2NC1=O)c1ncccn1
Response line: yes

Prompt line: Cool, now Cc1cnc([C@@H](C)NC(=O)CN2Cc3cc(F)ccc3NC2=O)c(F)c1
Response line: yes

Prompt line: Cool, now Cc1cnncc1C(C)NC(=O)CN1Cc2c(ccc(F)c2F)NC1=O (single isomer, unassigned)
Response line: yes
